Tested on: HCT-15 colon
Assay: NCI-60 one-dose screen, 48 h
Details: 10 µM unless noted
About 83,000 compounds went through this panel and 20% of them were active in at least one assay; those are over-represented in the sample as a whole. Activity calls are given as the source filed them. How the source made its calls: active means growth percent below 10; inactive means the rest.
Lab note: assign the record to one of active, inactive

Lookup: // outcome(item) with item = CCN(CC)C(=S)SC(SC(=S)N(CC)CC)C(=O)c1nnn(-c2ccc([N+](=O)[O-])cc2)c1C
Found: inactive

Lookup: Given COc1cc(OC)c2sc(-c3ccc(-n4cncc4-c4ccc(OC)c(OC)c4)cc3)nc2c1 , state the outcome it received in this test.
Found: inactive

Lookup: Give the logged outcome of this assay for the following compound: O=C(O)CCCN1C(=O)/C(=C/C(Cl)=C/c2ccccc2)SC1=S
Found: active

Lookup: Recorded test outcome, item CN1CCN(Cc2ccc3c(NNC(=O)c4ccccc4)nc4cc(F)ccc4n23)CC1
Found: inactive

Lookup: Record request — test call for Fc1ccc(Nc2nc3nonc3nc2Nc2ccc(I)cc2)cc1
Found: active

Lookup: Write down the call the test reported for this compound. Item: C#Cc1ccc(NC(=O)c2ccc(/C=C/C(=O)c3nccn3C)cc2)cc1
Found: active

Lookup: Name the outcome recorded for CC(C)=CCC[C@](C)(O)[C@H]1CC[C@]2(C)[C@@H]1CC[C@@H]1[C@@]3(C)Cc4nccnc4C(C)(C)[C@@H]3CC[C@]12C in the assay.
Found: inactive

Lookup: What did this assay record as the result for CCCCN1C(=O)/C(=c2\sc3n(c2=O)C2C(NN=3)N(CC)C(=O)N2CC)c2ccccc21 (centres undefined) ?
Found: active

Lookup: Could you kindly confirm the outcome this assay logged for COC(=O)c1c2c(c(C)[n+]([O-])c1C)C(=O)C(NCc1ccc(Cl)cc1)=CC2=O ?
Found: inactive

Lookup: For Nc1nc2c([nH]1)c1[nH]c3ccccc3c1c1[nH]c3ccccc3c21 , which call appears in the assay record?
Found: inactive

Lookup: Dear colleague, could you share the recorded outcome for O=C(Nc1ncc(Cc2ccc(Cl)c(C(F)(F)F)c2)s1)c1ccc2nnsc2c1 when you have a moment?
Found: inactive

Lookup: Dear all, I need the recorded test outcome for Cc1ccc2c(n1)C(=O)c1[nH]c3ccccc3c1C2=O , thank you.
Found: inactive

Lookup: # outcome recorded in this test, key = Nc1nc(=S)c2ncn(C3OC(COP(=O)(O)O)C(O)C3O)c2[nH]1 (centres undefined)
Found: active

Lookup: Recorded call for CCNc1cc(-c2cccc(OC(F)(F)F)c2)nc2ccc(N3CCCC3)cc12 ?
Found: active

Lookup: Test call, this compound: COc1cc(/C=C\c2cc(/C=C\c3ccc(O)c(OC)c3)n(C(=O)COc3ccc(Cl)cc3Cl)n2)ccc1O
Found: active

Lookup: Kindly provide the recorded test outcome for the following compound: C=C1C(=O)O[C@H]2[C@H]1CC/C(COC(=O)NCc1cc[nH]c1)=C\CC[C@@]1(C)O[C@@H]21
Found: inactive

Lookup: Kindly provide the recorded test outcome for the following compound: O=C(Cn1cc(CN2CCCCCC2)nn1)Nc1ccc2c(ccn2Cc2ccccc2)c1
Found: inactive

Lookup: Which outcome was entered for the compound CCNc1nc(-c2ccc(Cl)c(OC)c2)c(-c2ccnc(NCCCNS(=O)(=O)c3ccc(Cl)cc3)n2)s1 in this test?
Found: inactive

Lookup: I'd appreciate the recorded outcome for O=C(Cn1c(=O)sc2nc3ccccc3nc21)Nc1ncc(Cc2cccc(Cl)c2Cl)s1 from this test.
Found: inactive

====

Tested on: SNB-75 CNS
Experiment: NCI-60 one-dose screen, 48 h
Details: 10 µM unless noted
The panel holds about 83,000 compounds, 20% with a hit somewhere; the sample as a whole holds those more often. Activity calls are given as the source filed them. The calls were made as follows: active = growth percent below 10; inactive = the rest.
Pick from active, inactive when you respond.

Lookup: Which result was noted for this compound in the test: C=C(C)[C@@H]1CC[C@]2(C(=O)O)CC[C@]3(C)[C@H](CC[C@@H]4[C@@]5(C)C[C@@H](Cc6cn(CCO[C@@H]7O[C@H](COC(C)=O)[C@H](OC(C)=O)[C@H](OC(C)=O)[C@H]7OC(C)=O)nn6)[C@H](O)C(C)(C)[C@@H]5CC[C@]43C)[C@@H]12
Found: inactive

Lookup: Per the records of this test, what outcome belongs to Cn1cc(-c2nonc2-c2c[nH]c3ccc(Br)cc23)c2cc(Br)ccc21 ?
Found: active

Lookup: Hi, sorry to bother you, what did the test record for Cc1cccc(N2CCN(CC(O)COc3ccc(Cl)cc3)CC2)c1 (stereo not given) ?
Found: inactive

Lookup: Call for entry O=C(Cn1c(-c2ccc([N+](=O)[O-])cc2)nc2ccccc21)NNC(=O)c1cccnc1 :
Found: inactive

Lookup: Assay result, entry CCOC(=O)c1c(C)nc2c(c1N)CC(=O)N2Cc1cc(F)cc(Cl)c1 — outcome?
Found: inactive

Lookup: Each compound tested received a call. Report the one for O=C1/C(=C/c2ccc(-c3ccc(Br)cc3)o2)SC(=S)N1CCc1ccc(O)cc1 .
Found: inactive

Lookup: Per the records of this test, what outcome belongs to O=C(CCCCC1CCSS1)Nc1ncnc2n[nH]c(-c3ccc(Oc4ccccc4)cc3)c12 (stereo not given) ?
Found: inactive

Lookup: Answer briefly: the call reported for CNc1nc(S(=O)c2ccc(C#N)cc2)nc2ccccc12 (stereo not given) in this assay.
Found: inactive

Lookup: Given CC(O)c1cnc(/C=C2\SC(=S)N(Cc3ccccc3)C2=O)s1 (stereo not given) , state the outcome it received in this test.
Found: inactive

Lookup: Returns: the outcome recorded for N=C(N)c1ccc(-c2ccc(-c3ccc(F)cc3)o2)o1 in this assay.
Found: inactive

Lookup: Entry CC(=O)c1cc(O)c2ccccc2c1O : call = ?
Found: inactive

Lookup: What is the recorded call for this compound in the test? CC1(C)CC[C@]2(c3nnc(-c4ccncc4)o3)CC[C@H]3C(=CC[C@H]4[C@@]3(C)CC[C@H]3C(C)(C)C(=O)CC[C@]43C)[C@@H]2C1
Found: inactive

Lookup: Give the logged outcome of this assay for the following compound: N#C/C(=C\c1ccc2ccccc2c1)c1cc2ccccc2[nH]1
Found: inactive

Lookup: What did this assay record as the result for Cc1ccc2c3c(c(=O)[nH]c2c1)C1(C(C#N)=C(N)O3)c2cc(Br)ccc2-c2ccc(Br)cc21 ?
Found: active

Lookup: What did the test return for COC(=O)c1n[nH]c2ccc3nc(-c4cn[nH]c4C(F)(F)F)c4c(c3c12)CCCC4 ?
Found: inactive

Lookup: For N#CC1=C(N)Oc2c(sc3c(F)cccc23)C1c1ccc(F)cc1 (stereo not given) , which call appears in the assay record?
Found: active

Lookup: Tell me the recorded outcome of this test for CN(C)C1CCN(Cc2ccc(NC(=O)c3cncc(C#Cc4cnc(N)c5ncccc45)c3)cc2C(F)(F)F)CC1 .
Found: inactive

Lookup: Give the logged outcome of this assay for the following compound: O=C(Nc1cccc([N+](=O)[O-])c1)c1cc2ccccc2cc1O
Found: active

Lookup: What was the test verdict on O=C(/C=C/c1ccccc1)c1cccc(OCCCOc2cccc(C(=O)/C=C/c3ccccc3)c2)c1 ?
Found: inactive

Lookup: // outcome(item) with item = O=c1oc2ccccc2cc1C1=NN=C(SCc2ccccc2)SC1
Found: inactive

Lookup: Assay result, entry Cc1cccnc1NC(=S)Nc1ncccc1C — outcome?
Found: inactive

Lookup: Recorded test call requested for N#Cc1cnc(NCCc2ccncc2)nc1-n1cnc2ccccc21
Found: inactive

Lookup: Please let me know the test result on file for CC(=O)n1nc(C(=O)OC(C)C)c2cc(C)c(C)cc21 .
Found: inactive

Lookup: // outcome(item) with item = Cc1cnc(C(=O)NNc2nc3sc4c(c3c(=O)n2C)C(C)CCC4)cn1 (stereo not given)
Found: active

Lookup: Just curious, what result did CCO/C=N/C1=C(C#N)C(c2ccc(OC)cc2)c2sc3c(F)cccc3c2O1 (stereo not given) get here?
Found: active

Lookup: Could you kindly confirm the outcome this assay logged for O=C1Nc2ccccc2[C@]12CC(c1ccccc1)=NN2 ?
Found: inactive

Lookup: # fetch the recorded call for O=C(c1ccccc1)C1C(=O)N2C(=S)N(c3ccccc3)C(=O)C2C1c1ccc(Cl)cc1 (stereo not given) here
Found: inactive

Lookup: Each compound tested received a call. Report the one for CCN(c1ccc(Cl)cc1)c1nc(-c2ccc([N+](=O)[O-])cc2)cs1 .
Found: inactive

Lookup: Short answer needed: outcome of this test for CSc1nnc(-c2cnn3c2NC(c2ccccc2)C3)n1-c1ccc(C(F)(F)F)cc1 (stereo not given) ?
Found: inactive

Lookup: Hi, do you know how Cc1cc(N)c2cc(NC(=O)/C=C\c3ccccc3Cl)ccc2n1 came out in this test?
Found: active

Lookup: So what was the verdict on CN(C)CCCC1(c2ccc(F)cc2)OCc2cc(-c3cncc4ccccc34)ccc21 (stereo not given) in this test?
Found: inactive

Lookup: // return assay outcome for Cc1nc2ncnc(Cl)c2[nH]1
Found: inactive

Lookup: Outcome? C#CCOc1cccc(Nc2ncnc3c(NC(=O)C=C)cccc23)c1
Found: inactive

Lookup: Please state the recorded outcome for this compound: O=c1c2cc(-c3ccccc3)sc2nc2sc(-c3ccccc3)nn12
Found: inactive

Lookup: Test call for this compound, please: O=C(NCc1ccccc1)Nc1ccccc1CNc1nc(Nc2ccc(OCCN3CCCC3)cc2)ncc1Cl
Found: inactive

Lookup: Dear colleague, could you share the recorded outcome for CCN(CC)c1ccc(/C=C/C(=O)c2ccc(Nc3nc(Nc4ccccc4)nc(Nc4ccccc4)n3)cc2)cc1 when you have a moment?
Found: inactive

Lookup: Assay outcome for O=C(Cc1ccccc1)Nc1nc(O)c(/C=C2\C(=O)C=Cc3ccccc32)s1 : what was it?
Found: inactive

Lookup: Give the logged outcome of this assay for the following compound: CC(=O)N(N=Nc1ccccc1)c1cccc2ccccc12
Found: inactive

Lookup: Recorded test call requested for O=C(Nc1nn(-c2ccc(Cl)cc2Cl)nc1-c1ccccc1)c1ccccc1
Found: inactive

Lookup: Hi team, can someone confirm the assay call for COc1ccc2c(c1)c(-c1noc(C(=O)c3cn(C)c4ccc(Br)cc34)n1)cn2C ?
Found: inactive
